Origin of values: ChEMBL document CHEMBL1143157

- test-details: in vivo
- conditions-used: rat
# Vd listing for each entry below

mol: Cc1ccc2c(-c3nnc(SCCCN4CCc5ccc6nc(C(C)(F)F)oc6c5CC4)n3C)cccc2n1
unit-label: L/kg
Vd: 3.31
--
mol: Cc1ncoc1-c1nnc(SCCCN2CCc3ccc4oc(C(C)(F)F)nc4c3CC2)n1C
unit-label: L/kg
Vd: 0.8
--
mol: CCc1nc2c3c(ccc2o1)CCN(CCCSc1nnc(-c2ocnc2C)n1C)CC3
unit-label: L/kg
Vd: 0.61
--
mol: Cc1ncoc1-c1nnc(SCCCN2CCc3ccc4oc(C(F)(F)F)nc4c3CC2)n1C
unit-label: L/kg
Vd: 1.6

* * *

# bioavailability listing for each entry below
- test-details: in vivo
- conditions-used: rat, po

mol: Cc1ccc2c(-c3nnc(SCCCN4CCc5ccc6nc(C(C)(F)F)oc6c5CC4)n3C)cccc2n1
unit-label: %
bioavailability: 8
--
mol: Cc1ncoc1-c1nnc(SCCCN2CCc3ccc4oc(C(F)(F)F)nc4c3CC2)n1C
unit-label: %
bioavailability: 63
--
mol: Cc1ncoc1-c1nnc(SCCCN2CCc3ccc4oc(C(C)(F)F)nc4c3CC2)n1C
unit-label: %
bioavailability: 54
--
mol: CCc1nc2c3c(ccc2o1)CCN(CCCSc1nnc(-c2ocnc2C)n1C)CC3
unit-label: %
bioavailability: 73
--
mol: Cc1ccc2c(-c3nnc(SCCCN4CCc5ccc6oc(C)nc6c5CC4)n3C)cccc2n1
unit-label: %
bioavailability: 15

* * *

- test-details: in vivo
- conditions-used: rat

mol: CCc1nc2c3c(ccc2o1)CCN(CCCSc1nnc(-c2ocnc2C)n1C)CC3
unit-label: h
half-life: 1.9
--
mol: Cc1ncoc1-c1nnc(SCCCN2CCc3ccc4oc(C(C)(F)F)nc4c3CC2)n1C
unit-label: h
half-life: 1.2
--
mol: Cc1ccc2c(-c3nnc(SCCCN4CCc5ccc6oc(C)nc6c5CC4)n3C)cccc2n1
unit-label: h
half-life: 1.7
--
mol: Cc1ncoc1-c1nnc(SCCCN2CCc3ccc4oc(C(F)(F)F)nc4c3CC2)n1C
unit-label: h
half-life: 0.6

* * *

- test-details: in vivo
- conditions-used: rat, brain and blood, iv
Each record is given class 1 if its reported Kp at 1 h is strictly below 0.8. Records at or above 0.8 are given class 0.

mol: Cc1ccc2c(-c3nnc(SCCCN4CCc5ccc6nc(C(C)(F)F)oc6c5CC4)n3C)cccc2n1
group-label: class 0
--
mol: Cc1ncoc1-c1nnc(SCCCN2CCc3ccc4oc(C(C)(F)F)nc4c3CC2)n1C
group-label: class 1
--
mol: CCc1nc2c3c(ccc2o1)CCN(CCCSc1nnc(-c2ocnc2C)n1C)CC3
group-label: class 1
--
mol: Cc1ccc2c(-c3nnc(SCCCN4CCc5ccc6oc(C)nc6c5CC4)n3C)cccc2n1
group-label: class 0

* * *

- test-details: in vivo
- conditions-used: rat, whole blood
Each record is given rule met if its reported clearance is strictly below 9 mL/min/kg. Records at or above 9 mL/min/kg are given rule not met.

mol: CCc1nc2c3c(ccc2o1)CCN(CCCSc1nnc(-c2ocnc2C)n1C)CC3
group-label: rule met
//
mol: Cc1ncoc1-c1nnc(SCCCN2CCc3ccc4oc(C(F)(F)F)nc4c3CC2)n1C
group-label: rule not met
//
mol: Cc1ccc2c(-c3nnc(SCCCN4CCc5ccc6nc(C(C)(F)F)oc6c5CC4)n3C)cccc2n1
group-label: rule not met
//
mol: Cc1ccc2c(-c3nnc(SCCCN4CCc5ccc6oc(C)nc6c5CC4)n3C)cccc2n1
group-label: rule not met
